# MEASURED_ON: T1, recombinant human PAD4 (human, UniProt Q9UM07 1-663)
# T1 construct: also called rhPAD4; hPAD4
# EXPERIMENT_NOTES: SPR 37 C, captured antibody, PAD4 analyte, 2 mM EDTA
Parameter Kd: see the listing below.
Value expressed in nM; do not type the unit.

As a guide, the following entries are already answered.
# BINDER, MEAS_VALUE
records = [
    ("hz13-5 D31E (antibody, V domains shown, IgG1.3f; also called clone 13-based hz13-5 D31E) VH: EVLLVQSGAEVKKPGASVKLSCTSSDFNIKEHFIHWVRQAPGKGLEWMGRIDPEDDETKYAPKFQDRVTMTADTSTDTAYMELSSLRSEDTAVFYCAGYGNYEGAMDYWGQGTLVTVSS VL: DIQMTQSPSSLSASVGDRVTITCRASENVNNYGIGFMNWFQQKPGKAPKLLIYAASRRGSGVPSRFSGSGSGTDFTLTISSLQPEDFATYFCQQSKEVPYTFGQGTKVEIKR", 0.306),
    ("hz13-5 (antibody, IgG1, V domains shown, also called clone 13-based hz13-5 antibody; parent hz13-5) VH: EVLLVQSGAEVKKPGASVKLSCTSSDFNIKDHFIHWVRQAPGKGLEWMGRIDPEDDETKYAPKFQDRVTMTADTSTDTAYMELSSLRSEDTAVFYCAGYGNYEGAMDYWGQGTLVTVSS VL: DIQMTQSPSSLSASVGDRVTITCRASENVNNYGIGFMNWFQQKPGKAPKLLIYAASRRGSGVPSRFSGSGSGTDFTLTISSLQPEDFATYFCQQSKEVPYTFGQGTKVEIK", 0.1),
    ("hz20-1 (antibody, V domains shown, light constant region not tied to this antibody) VH: QVQLVQSGAEVKKPGASVKVSCKASGYTFTNYGISWVRQAPGQGLEWMGEIYPRSGNTYHNEKFKDRVTMTRDTSTSTVYMELSSLRSEDTAVYYCARSMITTRYWYFDVWGKGTTVTVSS VL: DIVMTQSPDSLAVSLGERATINCRASESVDTYGNSFMHWYQQKPGQPPKLLIYLASNLESGVPDRFSGSGSGTDFTLTISSLQAEDVAVYYCQQNNEDPLTFGAGTKLELK", 2.6),
]

Now examine the next entry.
QUERY: Assign Kd to the following record: hz13-2 (antibody, V domains shown, light constant region not tied to this antibody) VH: EVQLVQSGAEVKKPGASVKVSCTSSDFNIKDHFIHWVRQAPGKGLEWMGRIDPEDDETKYAPKFQDRVTMTADTSTDTAYMELSSLRSEDTAVYYCAGYGNYEGAMDYWGQGTLVTVSS VL: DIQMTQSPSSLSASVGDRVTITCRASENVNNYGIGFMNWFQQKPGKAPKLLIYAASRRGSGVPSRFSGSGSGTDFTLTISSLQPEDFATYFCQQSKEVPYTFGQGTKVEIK
RESULT: 0.1

All values here come from patent US20240132622A1.
